Known melting point of a selection of compounds

Check out these entries, answers already filled in.
INSERT INTO results (compound, measured_endpoint, data_value) VALUES
  ('N#Cc1c(N2CCCCC2)cc(-c2cccc3ccccc23)c2c1-c1ccccc1C2=O', 'melting point', '180 to 182 °C'),
  ('CC(C)c1ccccc1N1/C(=N\N=C/c2ccc(-c3ncn(-c4ccc(OC(F)(F)F)cc4)n3)cc2)SCC1(O)c1ccccc1C(F)(F)F (stereo unspecified)', 'melting point', '115 to 118 °C'),
  ('CC(C)n1c(C=O)c(-c2ccc(F)cc2)c(-c2ccccc2)c1C(=O)Nc1cccc(C(=O)N(C)C)c1', 'melting point', '202 to 203 °C'),
  ('CC1(C)OCC(C(CS(=O)(=O)c2ccc(-c3ccc(C(F)(F)F)cc3)cc2)N(O)C=O)O1 (stereo unspecified)', 'melting point', '204 to 205 °C'),
  ('O=C1Nc2ccc(-c3cccc(Cl)c3)cc2C2(CCCCC2)O1', 'melting point', '165 to 168 °C'),
  ('CCC(O)(CC)Cc1ccc(NC(=O)/C=C/c2cnn(C)c2-c2ccc(F)cc2)cc1', 'melting point', '150 to 151 °C'),
  ('COC1(c2cc(F)cc(Sc3ccc4c(c3)n(C)c(=O)n4C)c2)CCOCC1', 'melting point', '128 to 130 °C'),
  ('O=c1[nH]c2c(cnn2-c2ccccc2)c2ccccc12', 'melting point', '280 °C'),
  ('COC(=O)c1cnoc1-c1ccc(Cl)cc1Cl', 'melting point', '83 to 84 °C'),
  ('Cc1nc2c(N)nc3c(c2n1CCCCS(C)(=O)=O)CCCC3', 'melting point', '213 to 216 °C');

# compound CNC1c2ccccc2-c2[nH]c(=O)c3nccn3c21 (stereo unspecified) ; its melting point = 184 °C

# compound C=CCNc1ccnc2cn[nH]c12 ; its melting point = 230 to 232 °C

# compound CS(=O)(=O)Nc1ccc(OCCCN2CCC(OC(c3ccccc3)c3ccccc3)CC2)cc1 ; its melting point = 41 to 43 °C

# compound OCCSCc1ccc(-c2ccc(CSCCO)cc2)cc1 ; its melting point = 152 °C

# compound CCCc1oc(C)cc(=O)c1C(=O)Nc1ccccc1 ; its melting point = 133 to 134 °C

# compound COc1cc2ccccc2c(Br)c1O ; its melting point = 100 to 101 °C

---

Known melting point of a selection of compounds

INSERT INTO measurements (compound, measured_endpoint, data_value) VALUES
  ('COC(=O)c1cc(C(=O)c2c(C)c(OC)c3c(OCC(=O)OC(C)(C)C)cccn23)ccc1N', 'melting point', '188 °C'),
  ('NS(=O)(=O)c1cc2cc(CBr)ccc2s1', 'melting point', '171 to 173 °C'),
  ('O=[N+]([O-])c1[nH]c(-c2c(Cl)cc(C(F)(F)F)cc2Cl)nc1Br', 'melting point', '292 to 293 °C');

Next, consider the following compound.
# compound COC(=O)C1=C(C)NC(C)=C(C(=O)OC)C1c1cc([N+](=O)[O-])ccc1OCCNCC(O)c1ccccc1 (stereo not given) ; its melting point = 135 to 137 °C

---

Known melting point of a selection of molecules

INSERT INTO measurements (molecule, data_value) VALUES
  ('N#CC1(c2cccs2)CC1', '118 to 122 °C');

# molecule NC(=O)c1[nH]c2ccc(Cl)cc2c1S(=O)(=O)c1cc(Cl)cc(Cl)c1 ; its melting point = 258 to 260 °C

# molecule Cn1cc(-c2ccccc2)c(=S)c(-c2ccccc2)n1 ; its melting point = 122 to 123 °C

# molecule CCOC(=O)CCc1cn(-c2ccc(N)cn2)nc1C(C)C ; its melting point = 75 to 76 °C
